Each recorded value in this set is attributed to the supplement of paper PMC10567573.

B1: KIAA0774 (parent)
chain: FEDEVKRLGWQQQAELQELEERLQ

Variants of: B1
Assay: protein stability index of a GFP-peptide fusion (GPS, HEK-293T) (PSI 1-6); higher = more stable;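 further: lentivirally expressed fusions sorted by FACS into six bins by GFP to DsRed ratio, PSI derived from sequencing read proportions per bin multiplied by bin number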
Details: c terminus: a fixed tail appended

{"mutation list": "K6W", "protein stability index": 3.89}
{"mutation list": "E4L", "protein stability index": 2.47}
{"mutation list": "G9P", "protein stability index": 4.17}
{"mutation list": "E2Q", "protein stability index": 2.93}
{"mutation list": "E21C", "protein stability index": 4.38}
{"mutation list": "F1C", "protein stability index": 3.11}
{"mutation list": "V5Y", "protein stability index": 4.24}
{"mutation list": "D3N", "protein stability index": 2.75}
{"mutation list": "G9F", "protein stability index": 3.96}
{"mutation list": "E20L", "protein stability index": 3.38}
{"mutation list": "R7L", "protein stability index": 3.68}
{"mutation list": "E4P", "protein stability index": 3.56}
{"mutation list": "D3A", "protein stability index": 3.33}
{"mutation list": "E4S", "protein stability index": 2.83}
{"mutation list": "W10N", "protein stability index": 5.54}
